Entry source: patent US20200000897A1

- assayed-system: T1, HLA-A*03:01 (human)
- T1 construct: MHC class I monomer first loaded with a UV-sensitive peptide that is cleaved by UV irradiation and exchanged for the test peptide; captured on streptavidin plates; also called peptide-receptive MHC molecules
- method: UV-ligand exchange, anti-b2m ELISA; peptide exchange yield grade (>10% +, >20% ++, >50% +++, >75% ++++)
Listing: peptide exchange yield of selected binders

Ask: Suppose we examine the binder ALPRQAFHSK ; what peptide exchange yield value has been reported?
Result: > 75%

Ask: Item AISSTVLGK has what recorded peptide exchange yield?
Result: > 75%

Ask: State the recorded peptide exchange yield for this entry: RSKWSNVFK
Result: > 75%

Ask: Given VVREILHAQTLK , state its recorded peptide exchange yield.
Result: 50 to 75%

Next:
Ask: Could you share which peptide exchange yield value was measured for FLGLAFHPK ?
Result: 20 to 50%

Ask: So what's the measured peptide exchange yield for this one? KMMKRLMTVEK
Result: > 75%

Ask: # query: peptide exchange yield of entry TIASVLVAR
Result: 20 to 50%
